Assignment: determine reported pIC50 for the given compounds.
biological target: AChE (Homo sapiens)
Sequence (P22303 32-614): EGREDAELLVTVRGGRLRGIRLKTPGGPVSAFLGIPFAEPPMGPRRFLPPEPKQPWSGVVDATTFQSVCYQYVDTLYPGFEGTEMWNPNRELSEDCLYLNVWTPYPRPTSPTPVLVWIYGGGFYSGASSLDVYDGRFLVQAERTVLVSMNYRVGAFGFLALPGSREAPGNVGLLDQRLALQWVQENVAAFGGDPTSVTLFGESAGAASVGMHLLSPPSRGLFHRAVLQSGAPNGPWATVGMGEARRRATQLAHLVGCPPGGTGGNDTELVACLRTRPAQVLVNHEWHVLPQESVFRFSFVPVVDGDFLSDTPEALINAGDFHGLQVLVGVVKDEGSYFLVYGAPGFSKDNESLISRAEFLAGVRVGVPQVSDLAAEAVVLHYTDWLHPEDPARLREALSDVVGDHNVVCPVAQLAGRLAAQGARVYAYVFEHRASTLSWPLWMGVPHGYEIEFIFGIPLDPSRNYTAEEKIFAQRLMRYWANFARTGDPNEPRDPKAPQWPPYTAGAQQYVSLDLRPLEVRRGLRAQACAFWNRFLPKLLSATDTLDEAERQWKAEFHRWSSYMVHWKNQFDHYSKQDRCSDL
pIC50: −log10 of the molar value.

Cl.c1ccc2c(Nc3ccc4[nH]ccc4c3)nc(-c3ccncc3)nc2c1    < 5.00

Shift focus to the following entry.
Item Cl.Fc1cc(Nc2nc(-c3ccncc3)nc3ncccc23)cc2cc[nH]c12 ; assay system AChE (Homo sapiens); pIC50 reported as < 5.00

---

Could you please report measured pIC50 for the items listed next?
target: CHRM2 (Homo sapiens); assay: Safety47 cAMP CHRM2; conditions: Antagonist, read-out: RC50 (IC50)
Sequence (P08172 whole entry): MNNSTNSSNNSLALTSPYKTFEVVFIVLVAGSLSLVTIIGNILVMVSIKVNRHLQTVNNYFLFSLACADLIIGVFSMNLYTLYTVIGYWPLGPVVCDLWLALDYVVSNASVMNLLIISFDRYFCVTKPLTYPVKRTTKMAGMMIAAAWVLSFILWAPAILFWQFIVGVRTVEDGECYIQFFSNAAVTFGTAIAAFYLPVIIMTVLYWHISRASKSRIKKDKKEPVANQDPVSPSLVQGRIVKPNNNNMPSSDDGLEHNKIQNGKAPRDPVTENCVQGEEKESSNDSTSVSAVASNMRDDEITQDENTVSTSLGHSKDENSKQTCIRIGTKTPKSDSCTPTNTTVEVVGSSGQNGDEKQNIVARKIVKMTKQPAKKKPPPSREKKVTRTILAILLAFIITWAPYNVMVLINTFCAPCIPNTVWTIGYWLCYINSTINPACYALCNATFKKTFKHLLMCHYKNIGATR
pIC50: −log10 of the molar value.

Cl.c1ccc2c(Nc3ccc4[nH]ccc4c3)nc(-c3ccncc3)nc2c1    < 5.00

Reported pIC50 of Cl.Fc1cc(Nc2nc(-c3ccncc3)nc3ncccc23)cc2cc[nH]c12 : < 5.00
